# Tested Target: T1, thyroid stimulating hormone receptor (full length human TSHR) (human, UniProt P16473 22-764)
# T1 construct: Full length TSHR coated onto plastic tubes (TSHR coated tubes, as in WO2004/050708A2); also called TSH receptor
# Procedure Text: competitor ^125I-K1-70 IgG, TSHR coated tubes; 0.1 µg/mL in HBD
Assay Endpoint: Inhibition of binding (%)

Request: GET /values?readout=Inhibition of binding (%)&item= K1-70 IgG (antibody, V domains shown, Human IgG1 lambda purified from hetero-hybridoma supernatant) VH: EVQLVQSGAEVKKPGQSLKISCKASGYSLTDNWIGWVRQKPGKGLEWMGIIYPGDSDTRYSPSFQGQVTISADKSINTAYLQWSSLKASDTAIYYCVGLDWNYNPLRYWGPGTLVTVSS VL: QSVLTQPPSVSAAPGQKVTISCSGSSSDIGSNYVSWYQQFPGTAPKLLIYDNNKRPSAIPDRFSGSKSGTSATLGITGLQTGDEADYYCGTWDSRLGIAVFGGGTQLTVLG
Response: 62.8%

Request: Would you mind telling me what Inhibition of binding (%) value was observed for K1-18 IgG (antibody, V domains shown, Human IgG1 kappa purified from hetero-hybridoma supernatant; it is not part of the secreted protein; also called human monoclonal TSHR autoantibody K1-18 (stimulating)) VH: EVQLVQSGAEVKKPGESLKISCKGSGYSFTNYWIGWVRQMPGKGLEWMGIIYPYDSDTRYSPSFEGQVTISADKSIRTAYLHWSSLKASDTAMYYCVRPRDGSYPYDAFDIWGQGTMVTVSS VL: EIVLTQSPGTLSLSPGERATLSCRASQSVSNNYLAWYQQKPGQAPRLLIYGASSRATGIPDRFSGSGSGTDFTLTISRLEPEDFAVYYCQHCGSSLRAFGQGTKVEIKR ?
Response: 48.6%

Request: What measured Inhibition of binding (%) goes with K1-18 Fab (Fab, V domains shown) VH: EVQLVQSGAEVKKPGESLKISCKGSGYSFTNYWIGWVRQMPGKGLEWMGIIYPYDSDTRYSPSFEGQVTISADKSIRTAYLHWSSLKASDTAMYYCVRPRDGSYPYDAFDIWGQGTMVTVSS VL: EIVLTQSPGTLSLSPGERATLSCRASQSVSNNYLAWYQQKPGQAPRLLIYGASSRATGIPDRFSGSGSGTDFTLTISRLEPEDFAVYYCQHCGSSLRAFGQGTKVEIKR ?
Response: 38.4%

Request: For the binder K1-70 Fab (Fab, V domains shown) VH: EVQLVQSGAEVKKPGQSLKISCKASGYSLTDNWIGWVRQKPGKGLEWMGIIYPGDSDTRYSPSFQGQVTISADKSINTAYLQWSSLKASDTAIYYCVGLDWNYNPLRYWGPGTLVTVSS VL: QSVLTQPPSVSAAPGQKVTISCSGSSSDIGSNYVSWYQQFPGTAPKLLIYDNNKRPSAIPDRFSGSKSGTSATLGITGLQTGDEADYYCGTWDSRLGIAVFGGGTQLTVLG , what Inhibition of binding (%) is on record?
Response: 76.5%

Values were extracted from patent US20110300138A1.
